Tested on: dog plasma
method-summary: Anti-coagulant activity after administration per os to the dog, thrombin time (TT)
Format: in vivo
settings: oral, 5 mg/kg
Record form. Attribute: TT increase (maximal; number of times by which the initial time is increased). Fill in for each entry.
Could you give me the number in times? Just the number is fine.

stdin: Recorded TT increase (maximal; number of times by which the initial time is increased) of Cl.N=C(N)c1ccc(CNC(=O)[C@]23C[C@H]2CCCN3C(=O)[C@@H](CC2CCCCC2)NCC(=O)O)cc1 [Example 24] , please.
stdout: 6.7

stdin: Now consider Cl.N=C(N)c1ccc(CNC(=O)[C@]23C[C@H]2CCN3C(=O)[C@@H](CC2CCCCC2)NCC(=O)O)cc1 [Example 3] .
stdout: 8.4

stdin: Now consider Cl.Cl.N=C(N)c1ccc(CNC(=O)[C@]23C[C@H]2CCN3C(=O)[C@H](N)CC2CCCCC2)cc1 [Example 2] .
stdout: 3.8

stdin: Now consider CCOC(=O)CN[C@H](CC1CCCCC1)C(=O)N1CCC[C@@H]2C[C@@]21C(=O)NCc1ccc(N)nc1C.Cl.Cl [Example 33] .
stdout: 7.1

###

measurement-target: human thrombin (Homo sapiens, UniProt P00734)
Structures can show the parent of a compound that is named as a salt.
Classification scheme (IC50): lower bin: < 2 nM; middle bin: ≥ 2 nM and < 7 nM; upper bin: ≥ 7 nM

stdin: Using the reported IC50, which band applies to Cl.N=C(N)c1ccc(CNC(=O)[C@]23C[C@H]2CCN3C(=O)[C@@H](Cc2ccccc2)NS(=O)(=O)Cc2ccccc2)cc1 [Example 9, hydrochloride] ?
stdout: middle bin

stdin: Now consider N=C(N)c1ccc(CNC(=O)[C@]23C[C@H]2CCN3C(=O)[C@H](NCC(=O)O)C2CCCCC2)cc1 [Example 17, hydrochloride] .
stdout: upper bin

stdin: Now consider CN[C@H](CC1CCCCC1)C(=O)N1CCC[C@@H]2C[C@@]21C(=O)NCc1ccc(N)nc1C.Cl.Cl [Example 29, dihydrochloride] .
stdout: upper bin

stdin: Now consider Cc1nc(N)ccc1CNC(=O)[C@]12C[C@H]1CCCN2C(=O)[C@H](N)C(C1CCCCC1)C1CCCCC1 [Example 63, dihydrochloride] .
stdout: upper bin

stdin: Now consider CCCCN[C@H](CC1CCCCC1)C(=O)N1CCC[C@@H]2C[C@@]21C(=O)NCc1ccc(N)nc1C.Cl.Cl [Example 31, dihydrochloride] .
stdout: middle bin

stdin: Now consider Cl.Cl.N=C(N)c1ccc(CNC(=O)[C@]23C[C@H]2CCCN3C(=O)[C@H](N)C(c2ccccc2)c2ccccc2)cc1 [Example 61, dihydrochloride] .
stdout: lower bin

stdin: Now consider Cl.Cl.N=C(N)c1ccc(CNC(=O)[C@]23C[C@H]2CCN3C(=O)[C@H](N)CC2CCCCC2)cc1 [Example 2, dihydrochloride] .
stdout: upper bin

stdin: Now consider N=C(N)c1ccc(CNC(=O)[C@]23C[C@H]2CCN3C(=O)[C@H](NS(=O)(=O)Cc2ccccc2)C2CCCCC2)cc1 [Example 16, hydrochloride] .
stdout: lower bin

stdin: Now consider Cl.N=C(N)c1ccc(CNC(=O)[C@]23C[C@H]2CCN3C(=O)[C@H](NCC(=O)O)C(C2CCCCC2)C2CCCCC2)cc1 [Example 14, hydrochloride] .
stdout: lower bin

stdin: Now consider Cl.Cl.N=C(N)c1ccc(CNC(=O)[C@]23C[C@H]2CCN3C(=O)[C@H](N)C(C2CCCCC2)C2CCCCC2)cc1 [Example 13, dihydrochloride] .
stdout: lower bin

stdin: Now consider Cc1nc(N)ccc1CNC(=O)[C@]12C[C@H]1CCCN2C(=O)[C@H](N)CC1CCCCC1.Cl.Cl [Example 28, dihydrochloride] .
stdout: upper bin

stdin: Now consider Cl.N=C(N)c1ccc(CNC(=O)[C@]23C[C@H]2CCN3C(=O)[C@@H](CC2CCCCC2)NCC(=O)O)cc1 [Example 3, hydrochloride] .
stdout: middle bin

stdin: Now consider Cl.N=C(N)c1ccc(CNC(=O)[C@]23C[C@H]2CCCN3C(=O)[C@@H](CC2CCCCC2)NCC(=O)O)cc1 [Example 24, hydrochloride] .
stdout: middle bin

stdin: Now consider Cl.Cl.N=C(N)c1ccc(CNC(=O)[C@]23C[C@H]2CCN3C(=O)[C@H](N)C(c2ccccc2)c2ccccc2)cc1 [Example 11, dihydrochloride] .
stdout: middle bin

stdin: Now consider CCOC(=O)CN[C@H](CC1CCCCC1)C(=O)N1CCC[C@@H]2C[C@@]21C(=O)NCc1ccc(N)nc1C.Cl.Cl [Example 33, dihydrochloride] .
stdout: middle bin
